Recorded measurements of kon, one per entry
targetSystem: T1, recombinant human CD3 epsilon/gamma heterodimer (human, UniProt P07766 23-126; P09693 23-116)
T1 construct: Recombinant protein in solution (200-50 nM) in the Octet assay; also called hCD3 E/G
T1 sequence (P07766 23-126, chain 1 of 2): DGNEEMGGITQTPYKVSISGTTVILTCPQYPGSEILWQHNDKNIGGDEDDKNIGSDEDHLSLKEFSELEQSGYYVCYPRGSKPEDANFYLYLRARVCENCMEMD
T1 sequence (P09693 23-116, chain 2 of 2): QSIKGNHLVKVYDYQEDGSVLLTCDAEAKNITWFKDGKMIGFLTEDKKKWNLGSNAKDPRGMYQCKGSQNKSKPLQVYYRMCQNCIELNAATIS
assayProtocol: Octet BLI, mAb on FAB2G sensor, hCD3 E/G 200-50 nM; R^2 0.99
The figure you give is taken to be in M⁻¹ s⁻¹; do not add the unit.

| binder | unitLabel | experimentalResult |
| --- | --- | --- |
| ABL-CD3-7 (antibody, V domains shown, Chimeric hybridoma mAb: human V, CH1, upper hinge; mouse middle hinge, CH2, CH3) VH: EVQLVESGGGLVKPGGSLRLSCAASGFTFSRYSMNWVRQAPGKGLKWVSSISSSGSYKYYADSVKGRFTISRDNAKNSLYLQMNSLRAEDTAVYYCAREPPTLGMDYWGQGTLVTVSS VL: NFMLTQPHSVSESPGKTVTISCTRSSGSIASNYVQWYQQRPGSSPTTVIYEDNQRPSGVPDRFSGSIDSSSNSASLTISGLKTEDEADYYCQSFDNSNRVFGGGTKLTVL | M⁻¹ s⁻¹ | 169000 |

Form field: reported kon of ABL-CD3-57 (antibody, V domains shown, Chimeric hybridoma mAb: human V, CH1, upper hinge; mouse middle hinge, CH2, CH3) VH: EVQLVESGGGLVKPGGSLRLSCAASGFTFSSYTMNWVRQAPGKGLEWVSSISTSSRYIYYTDSVKGRFTISRDDAKNSLYLQMNSLRAEDTAVYYCTRNWGYDVFDIWGQGTMVIVSS VL: QPVLTQPSSHSASSGASVRLTCMLSSGFSVGDFWIRWYQQKPGNPPRYLLYYHSDSNKGQGSGVPSRFSGSNDASANAGILRISGLQPEDEADYYCGTWHSNSKTQVFGGGTKLTVL
65400

FYI, the data here is from patent US20260167721A1.
